Source: patent US10537563B2

target: Fyn (Homo sapiens, UniProt P06241); test: In vitro kinase assay (Table 1); format: biochemical
Sequence (P06241 whole entry, species assumed): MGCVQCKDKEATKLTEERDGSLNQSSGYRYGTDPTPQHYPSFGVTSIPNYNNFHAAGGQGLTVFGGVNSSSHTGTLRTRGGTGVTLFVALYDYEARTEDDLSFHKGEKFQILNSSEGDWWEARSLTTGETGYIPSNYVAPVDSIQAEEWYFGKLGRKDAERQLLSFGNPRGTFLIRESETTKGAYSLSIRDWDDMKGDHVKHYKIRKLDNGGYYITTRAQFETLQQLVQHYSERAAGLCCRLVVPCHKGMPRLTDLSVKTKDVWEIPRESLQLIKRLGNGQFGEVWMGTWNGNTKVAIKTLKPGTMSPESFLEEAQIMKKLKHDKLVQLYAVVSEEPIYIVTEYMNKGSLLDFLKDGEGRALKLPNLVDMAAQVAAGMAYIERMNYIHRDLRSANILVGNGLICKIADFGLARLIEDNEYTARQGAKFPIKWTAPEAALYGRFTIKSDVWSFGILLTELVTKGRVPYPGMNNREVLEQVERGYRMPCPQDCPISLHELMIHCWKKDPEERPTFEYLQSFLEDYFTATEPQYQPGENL
measurement.type: IC50

# query: IC50 | item CNC(=O)c1cc(Oc2ccc3nc(NC4CCCCC4O)sc3c2)ccn1 (stereo not shown) [Compound (I)] | system: Fyn (Homo sapiens, UniProt P06241)
> 10 µM

###

biological target: PIK3Calpha (Homo sapiens, UniProt P42336); experiment: In vitro kinase assay (Table 1); assay type: biochemical
Sequence (P42336 whole entry): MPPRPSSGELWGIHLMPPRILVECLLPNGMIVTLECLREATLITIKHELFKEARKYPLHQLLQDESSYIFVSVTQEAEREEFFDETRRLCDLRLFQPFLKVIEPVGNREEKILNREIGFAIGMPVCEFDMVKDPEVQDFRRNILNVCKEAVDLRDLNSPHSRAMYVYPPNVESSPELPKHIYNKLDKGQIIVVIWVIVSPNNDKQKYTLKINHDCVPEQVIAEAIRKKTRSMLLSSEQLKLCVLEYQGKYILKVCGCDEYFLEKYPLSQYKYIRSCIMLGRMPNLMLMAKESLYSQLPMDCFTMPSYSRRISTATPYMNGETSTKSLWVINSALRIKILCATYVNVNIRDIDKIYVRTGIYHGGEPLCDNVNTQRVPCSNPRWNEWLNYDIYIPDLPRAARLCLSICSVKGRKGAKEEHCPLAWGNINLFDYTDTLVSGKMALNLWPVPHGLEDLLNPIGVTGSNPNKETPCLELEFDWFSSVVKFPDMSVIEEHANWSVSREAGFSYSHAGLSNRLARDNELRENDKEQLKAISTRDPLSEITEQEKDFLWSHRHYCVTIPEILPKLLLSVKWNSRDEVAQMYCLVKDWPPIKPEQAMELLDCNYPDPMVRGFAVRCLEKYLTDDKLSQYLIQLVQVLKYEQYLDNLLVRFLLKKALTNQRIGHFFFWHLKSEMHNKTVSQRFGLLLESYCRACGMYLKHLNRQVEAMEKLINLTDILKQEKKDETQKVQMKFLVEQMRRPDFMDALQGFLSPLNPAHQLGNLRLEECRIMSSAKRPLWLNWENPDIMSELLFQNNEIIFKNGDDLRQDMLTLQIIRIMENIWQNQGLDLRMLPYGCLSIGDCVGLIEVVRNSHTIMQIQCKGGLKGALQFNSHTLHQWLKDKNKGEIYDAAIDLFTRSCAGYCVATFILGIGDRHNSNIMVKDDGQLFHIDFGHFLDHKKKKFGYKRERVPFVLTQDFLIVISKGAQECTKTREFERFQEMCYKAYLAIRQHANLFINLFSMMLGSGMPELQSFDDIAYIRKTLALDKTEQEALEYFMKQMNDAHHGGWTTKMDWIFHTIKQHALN
Sequence (P27986 whole entry partner): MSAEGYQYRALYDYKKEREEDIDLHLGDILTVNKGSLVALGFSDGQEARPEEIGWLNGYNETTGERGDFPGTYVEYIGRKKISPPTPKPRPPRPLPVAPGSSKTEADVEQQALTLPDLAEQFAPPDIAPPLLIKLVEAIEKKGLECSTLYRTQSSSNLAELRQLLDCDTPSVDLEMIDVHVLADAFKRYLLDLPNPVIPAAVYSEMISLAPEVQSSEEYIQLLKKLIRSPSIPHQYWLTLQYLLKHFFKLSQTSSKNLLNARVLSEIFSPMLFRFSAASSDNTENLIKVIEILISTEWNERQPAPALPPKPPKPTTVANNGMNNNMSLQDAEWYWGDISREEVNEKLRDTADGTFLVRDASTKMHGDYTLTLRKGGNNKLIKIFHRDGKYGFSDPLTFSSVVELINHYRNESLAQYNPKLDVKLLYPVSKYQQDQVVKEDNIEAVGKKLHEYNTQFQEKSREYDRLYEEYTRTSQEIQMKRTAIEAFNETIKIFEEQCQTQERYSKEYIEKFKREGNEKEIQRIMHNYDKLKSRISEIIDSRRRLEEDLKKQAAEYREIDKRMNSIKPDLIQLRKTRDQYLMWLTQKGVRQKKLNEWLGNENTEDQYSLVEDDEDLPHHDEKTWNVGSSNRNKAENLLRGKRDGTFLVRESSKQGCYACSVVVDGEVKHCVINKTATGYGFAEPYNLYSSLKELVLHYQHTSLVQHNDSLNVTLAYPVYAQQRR
measurement.type: IC50

Which IC50 is listed for CNC(=O)c1cc(Oc2ccc3nc(NC4CCCCC4O)sc3c2)ccn1 (stereo not shown) ?
> 25 µM

###

Target: UniProt P07949
Sequence (P07949 713-1063 limits assumed): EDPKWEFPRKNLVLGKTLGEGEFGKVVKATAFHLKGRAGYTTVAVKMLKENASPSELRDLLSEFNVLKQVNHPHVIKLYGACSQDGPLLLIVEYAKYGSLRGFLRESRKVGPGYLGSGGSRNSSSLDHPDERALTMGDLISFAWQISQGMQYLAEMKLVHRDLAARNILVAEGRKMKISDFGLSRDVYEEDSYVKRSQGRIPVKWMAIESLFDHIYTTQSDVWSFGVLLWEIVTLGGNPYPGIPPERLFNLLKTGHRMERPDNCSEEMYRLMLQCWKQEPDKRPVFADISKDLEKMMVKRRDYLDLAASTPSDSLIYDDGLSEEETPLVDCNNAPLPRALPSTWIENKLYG
Test: BaF3 proliferation assay
Type: cell-based, murine
measurement.type: EC50

# query: EC50 | item CNC(=O)c1cc(Oc2ccc3nc(NC4CCCCC4O)sc3c2)ccn1 (stereo not shown) | system: UniProt P07949
> 10 µM
